# tested-on: D-Apt49
# test-method-notes: Homogeneous electrochemical competitive binding assay in Tris buffer
# condition-context: 5 µM Fc-L-Tym, 3 µM D-Apt49, Tris buffer; K^*d fixed at 1.2 µM
pKd: −log10 of the molar value.
endpoint-name: pKd

> print(dat)
                                   compound  observed
1  NC(=O)[C@@H](N)Cc1ccc(O)cc1 [L-Tym, L-tyrosinamide]      5.55

* * *

# tested-on: D-Apt49
# test-method-notes: Homogeneous electrochemical competitive binding assay in Tris buffer
# condition-context: 5 µM Fc-L-Tym, 10 µM D-Apt49, Tris buffer; K^*d fixed at 1.2 µM
endpoint-name: Kd

> print(dat)
                                   molecule  endpoint.name  observed
1  NC(=O)[C@@H](N)Cc1ccc(O)cc1 [L-Tym, L-tyrosinamide]             Kd   2200 nM

* * *

# tested-on: D-Apt49
# test-method-notes: Cyclic voltammetry titration of ferrocene-labeled target with aptamer
# Format: binding
# condition-context: 5 µM Fc-L-Tym, increasing D-Apt49, Tris buffer pH 7.0; fit of eq 5; also used as predetermined value in competitive fits
endpoint-name: Kd (nM)

> print(dat)
                                   compound  tested.on  endpoint.name  observed
1  NC(=O)[C@@H](N)Cc1ccc(O[c-]2cccc2)cc1.[Fe+2].c1cc[cH-]c1 [Fc-L-Tym, O-Ferrocenyltyrosynamide]    D-Apt49             Kd      1200

* * *

# tested-on: D-Apt49
# test-method-notes: Redox-mediated catalytic cyclic voltammetry titration with aptamer
# Assay type: binding
# condition-context: 5 µM target, 1 µM [Os(bpy)3]2+, 5 mM Tris buffer pH 7.0, 50 mM NaCl, 10 mM MgCl2; nonlinear fit of eq 5
pKd: −log10 of the molar value.
endpoint-name: pKd

> print(dat)
                                   molecule  endpoint.name  observed
1  NC(=O)[C@@H](N)Cc1ccc(O)cc1 [L-Tym, L-tyrosinamide]            pKd      5.54

* * *

# tested-on: D-Apt49
# test-method-notes: Homogeneous electrochemical competitive binding assay in 20% fetal bovine serum
# condition-context: 20% fetal bovine serum, 5 µM Fc-L-Tym, 100 µM D-Apt49; read-out: K^*d
endpoint-name: Kd (µM)

> print(dat)
                                   compound  endpoint.name  observed
1  NC(=O)[C@@H](N)Cc1ccc(O[c-]2cccc2)cc1.[Fe+2].c1cc[cH-]c1 [Fc-L-Tym, O-Ferrocenyltyrosynamide]             Kd        75

* * *

# tested-on: L-Apt49
# test-method-notes: Redox-mediated catalytic cyclic voltammetry titration with mirror-image aptamer
# condition-context: nonlinear fit of eq 5; catalytic peak current, Tris buffer
pKd: −log10 of the molar value.
endpoint-name: pKd

> print(dat)
                                   compound  endpoint.name  observed
1  NC(=O)[C@H](N)Cc1ccc(O)cc1 [D-Tym, d-tyrosinamide]            pKd      5.42

* * *

# tested-on: D-Apt49
# test-method-notes: Homogeneous electrochemical competitive binding assay in 20% fetal bovine serum
# condition-context: 20% fetal bovine serum, 5 µM Fc-L-Tym, 40 µM D-Apt49; read-out: Kd
endpoint-name: Kd (µM)

> print(dat)
                                   molecule  display.unit  observed
1  NC(=O)[C@@H](N)Cc1ccc(O)cc1 [L-Tym, L-tyrosinamide]            µM         9
